TARGET OF ASSAY: T1, Epstein-Barr virus BHRF1 a.a. 1-161 with C-terminal avi-6his tag (Epstein-Barr virus)
T1 construct: also called EBV BHRF1; BHRF1-biotin
T1 chain: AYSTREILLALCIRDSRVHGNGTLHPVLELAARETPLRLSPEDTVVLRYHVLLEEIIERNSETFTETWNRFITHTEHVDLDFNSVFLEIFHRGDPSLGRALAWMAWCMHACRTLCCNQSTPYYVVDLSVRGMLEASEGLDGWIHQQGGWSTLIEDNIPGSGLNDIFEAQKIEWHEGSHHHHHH
METHOD NOTES: yeast display library, FACS sort at 400 nM BHRF1, deep sequencing
The entries below come with measured Log2 enrichment ratio values attached.
METRIC NAME: Log2 enrichment ratio (log2)

[[record]]
binder = "Index 25 (designed binder) GANHEDAIWEALYKAEDAFKDHLKEIEIYREFSEKFWPLDDYKDNLRAHWIAAALAAIGDWFNVFFEAELKFREAKRKNLRSEDDIKKYRWRLFKALDIAIDLADRVGDEAEKAERLG"
numeric_readout = -1.53

[[record]]
binder = "Index 12 (designed binder) GEDDDKVLKWALEALRKVLDEAKEKLEKLKKYTDGDGFGEDYRREFFRKWIAIALEAIGDIFNIMMEALQKADKHKKLNTHDSQKADEAKEKIKKFADEAEERAKELAKKGEAWLLKG"
numeric_readout = -1.37

[[record]]
binder = "Index 44 (designed binder) GESGEWILEKTREKIERAIRDAEKKLRLIILLIRLFHPGDDLRALFAAIWIAAELELIGDIFNEKQDAEEKFKELLKKNQFRWEELWRKWLILEWIFQKARRKSKELAERAKKAFDFG"
numeric_readout = -3.16

[[record]]
binder = "Index 19 (designed binder) GERVEEILRKMLDDALLHFLEHRDDARERKERGERHQPRDEEREELSHDWIAAALMAIGDIFNAKLRAEERAEEFLKWGLRSQDDKKELEERAKEAAKIALKWAEEAGKEADEAEKAG"
numeric_readout = -1.98


The measured values listed here are drawn from patent US20160376333A1.
